system: MCF7 breast; experiment: NCI-60 one-dose screen, 48 h; conditions: 10 µM unless noted
The panel holds about 83,000 compounds, 20% with a hit somewhere; the sample as a whole holds those more often. The source made the active and inactive calls. How the source made its calls: active means growth percent below 10; inactive means the rest.
Please reply with one of these outcomes: T (active), F (inactive)

> print(dat)
                                     smiles  classification
1  Cc1cc(C)cc(S(=O)(=O)n2ccc(-c3ccc4c(c3)CCC(C)(C)O4)n2)c1               F

// query For "Cc1ccc(S(=O)(=O)NCCN2c3nc4ccccc4cc3Sc3cc4ccccc4nc32)cc1" , what call appears in the results of this test?
// result F

// query Per the assay record, what outcome was assigned to "O=C(COc1ccc(/C=C2\Oc3ccc4ccccc4c3C2=O)cc1)c1ccc(Cl)cc1" ?
// result F

// query Recorded test outcome, item "COC(=O)[C@H](Cc1cn(C)cn1)NC(=O)[C@H](Cc1ccccc1)NC(=O)Nc1cc(C(F)(F)F)cc(C(F)(F)F)c1"
// result T

// query Could you kindly confirm the outcome this assay logged for "COc1cc(/C(Cl)=C/C=C/C(=O)c2c(C)[n+]([O-])c3ccc(Cl)cc3[n+]2[O-])cc(OC)c1OC" ?
// result T

###

test system: IGROV1 ovarian; assay: NCI-60 one-dose screen, 48 h (100 = growth as untreated, 0 = no growth, -100 = all killed); details: 10 µM unless noted
This is part of a sample that, as a whole, favours compounds with a hit. Of some 83,000 tested, about 20% had one in any assay.
propertyMeasured: growth (%)
Provide only the numeric value, understood in %.

Entry "CC(=O)c1ccc(NS(=O)(=O)c2ccc([N+](=O)[O-])cc2)cc1" ; growth = 107

###

tested on: T-47D breast; assay: NCI-60 one-dose screen, 48 h; details: 10 µM unless noted
Compounds without any hit were thinned out: in the full panel of roughly 83,000, 20% have a hit. Calls of active or inactive are those of the source. How the source made its calls: active means growth percent below 10; inactive means the rest.
Can you answer with just one of these options? class 1 (active), class 0 (inactive)

smiles	classification
Cc1nn(-c2ccccc2)cc1/C=C1\SC(N2CCCCC2)=NC1=O	class 0
CC(=O)Nc1c(Cl)cc2c(c1Cl)Cc1cc([N+](=O)[O-])ccc1-2	class 0
Cc1n(Cc2ccc3ccccc3c2)cc[n+]1Cc1ccc2ccccc2c1	class 1
OCCCc1n(Cc2ccc3ccccc3c2)c2ccccc2[n+]1Cc1ccc2ccccc2c1	class 0

Field: next compound
// query Outcome logged for "N#Cc1ccc(-c2csc(Nc3ccc4nc5n(c(=O)c4c3)CCC5)n2)cc1" in this assay:
// result class 0

###

test system: MCF7 breast; assay: NCI-60 one-dose screen, 48 h (100 = growth as untreated, 0 = no growth, -100 = all killed); details: 10 µM unless noted
About 83,000 compounds went through this panel and 20% of them were active in at least one assay; those are over-represented in the sample as a whole.
propertyMeasured: growth (%)
Use % as the unit, but write only the number.

Some entries whose results are on file:
> print(dat)
                                     smiles  propertymeasured  unitslabel  readoutnumber
1  O=[N+]([O-])c1ccc(NS(=O)(=O)c2ccc(Cl)c(Cl)c2)cc1            growth           %           79.7
2  COc1ccc2c(c1)CC/C(=C\c1ccc(OCC(=O)Nc3nc4ccccc4s3)cc1)C2=O            growth           %           98.4
3  N#Cc1ncc(-c2ccc(C(F)(F)F)cc2)c(NC2CCCCCC2)n1            growth           %             14
4  O=C(C(=O)N1CCOCC1)c1cn(CCCn2cc(C(=O)C(=O)N3CCOCC3)c3ccccc32)c2ccccc12            growth           %           95.4

With those in mind, consider the next molecule.
Here "COc1cc(-c2n[nH]nc2-c2ccccn2)cc(OC)c1OC" was tested on MCF7 breast, and its growth came to 96.2
